# test: Compound was tested for inhibition against Coagulation factor I
Recorded Ki by entry
Express it in µM; write the number only.

Please review the entries below; each comes with its answer.
* CC1(C)[C@@H]2C[C@H]3OB([C@H](CCCCN)NC(=O)Cn4nc(CC#N)cc4CCc4ccccc4)O[C@@]3(C)[C@H]1C2 | 13
* CC1(C)[C@@H]2C[C@H]3OB([C@H](CCCCN)NC(=O)Cn4nc(CC#N)nc4Cc4cccc([N+](=O)[O-])c4)O[C@@]3(C)[C@H]1C2 | 1.9
* CC1(C)[C@@H]2C[C@H]3OB([C@H](CCCCN)NC(=O)Cn4nc(CC#N)nc4CCc4ccccc4)O[C@@]3(C)[C@H]1C2 | 6.8

Kindly consider the entry below.
Note to self: Ki recorded for "CC1(C)[C@@H]2C[C@H]3OB([C@H](CCCCN)NC(=O)Cn4nc(CC#N)nc4Cc4ccccc4[N+](=O)[O-])O[C@@]3(C)[C@H]1C2" was 2

----------
Below are pKi values recorded for Serine protease 1 (Homo sapiens).
Please express pKi as -log10 of the molar concentration.

Guide cases for pKi, answers given:
- CCCc1nc(Cc2ccccc2)n(CC(=O)N[C@@H](CCCCN)B2O[C@@H]3C[C@@H]4C[C@@H](C4(C)C)[C@]3(C)O2)n1: 8.64
- CC1(C)[C@@H]2C[C@H]3OB([C@H](CCCCN)NC(=O)Cn4nc(CC#N)cc4CCc4ccccc4)O[C@@]3(C)[C@H]1C2: 7.46

Could you now consider this next compound?
So, "CC1(C)[C@@H]2C[C@H]3OB([C@H](CCCCN)NC(=O)Cn4nc(CC#N)nc4Cc4cccc([N+](=O)[O-])c4)O[C@@]3(C)[C@H]1C2" ? Its pKi was 7.64

----------
# target.under.test: Serine protease 1 (Homo sapiens, UniProt P07477)
# Sequence (P07477 whole entry): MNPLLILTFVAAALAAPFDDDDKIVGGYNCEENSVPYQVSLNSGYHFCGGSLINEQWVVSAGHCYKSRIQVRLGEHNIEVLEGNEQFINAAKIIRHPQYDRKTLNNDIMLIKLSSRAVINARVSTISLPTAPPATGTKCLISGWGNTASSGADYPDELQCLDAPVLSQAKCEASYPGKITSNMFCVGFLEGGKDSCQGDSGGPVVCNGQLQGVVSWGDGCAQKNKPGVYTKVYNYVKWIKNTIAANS
Below, each of the compounds is paired with its reported Ki value.
Could you write the number and then its unit?

* CC(C)(C)CC(=O)NCc1nc(Cc2ccccc2)n(CC(=O)N[C@@H](CCCCN)B2O[C@@H]3C[C@@H]4C[C@@H](C4(C)C)[C@]3(C)O2)n1 | 2.7 nM
* CC1(C)[C@@H]2C[C@H]3OB([C@H](CCCCN)NC(=O)Cn4nc(CC#N)nc4CCc4ccccc4)O[C@@]3(C)[C@H]1C2 | 12 nM

Next up:
Per the reported Serine protease 1 (Homo sapiens, UniProt P07477) data, "CC1(C)[C@@H]2C[C@H]3OB([C@H](CCCCN)NC(=O)Cn4nc(CC#N)nc4Cc4ccccc4)O[C@@]3(C)[C@H]1C2" has Ki of 5.6 nM

----------
Target chain: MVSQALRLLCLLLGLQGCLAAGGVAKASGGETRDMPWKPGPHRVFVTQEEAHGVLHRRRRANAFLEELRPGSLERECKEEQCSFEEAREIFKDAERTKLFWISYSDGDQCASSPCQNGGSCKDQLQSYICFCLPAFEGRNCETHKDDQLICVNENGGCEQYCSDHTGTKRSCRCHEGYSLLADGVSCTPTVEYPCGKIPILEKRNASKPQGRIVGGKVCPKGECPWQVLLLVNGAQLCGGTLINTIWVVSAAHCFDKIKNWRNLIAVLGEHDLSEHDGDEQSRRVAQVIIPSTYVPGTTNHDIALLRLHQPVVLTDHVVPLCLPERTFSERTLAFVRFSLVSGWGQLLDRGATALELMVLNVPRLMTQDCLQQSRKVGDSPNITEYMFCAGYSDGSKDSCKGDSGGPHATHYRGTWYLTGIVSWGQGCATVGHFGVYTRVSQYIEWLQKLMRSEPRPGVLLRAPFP
Reported Ki values follow for various compounds

Reference set (7 entries):
• CC1(C)[C@@H]2C[C@H]3OB([C@H](CCCCN)NC(=O)Cn4nc(-c5cccc([N+](=O)[O-])c5)nc4Cc4ccccc4)O[C@@]3(C)[C@H]1C2 = 2.6 µM
• CC(C)C(=O)NCc1nc(Cc2ccccc2)n(CC(=O)N[C@@H](CCCCN)B2O[C@@H]3C[C@@H]4C[C@@H](C4(C)C)[C@]3(C)O2)n1 = > 3 µM
• CC1(C)[C@@H]2C[C@H]3OB([C@H](CCCCN)NC(=O)Cn4nc(CCC(=O)O)nc4Cc4ccccc4)O[C@@]3(C)[C@H]1C2 = > 3 µM
• CC(C)(C)OC(=O)CCc1nc(Cc2ccccc2)n(CC(=O)N[C@@H](CCCCN)B2O[C@@H]3C[C@@H]4C[C@@H](C4(C)C)[C@]3(C)O2)n1 = > 3 µM
• CC1(C)[C@@H]2C[C@H]3OB([C@H](CCCCN)NC(=O)Cn4nc(CNS(=O)(=O)C(F)(F)F)nc4Cc4ccccc4)O[C@@]3(C)[C@H]1C2 = > 3 µM
• CC1(C)[C@@H]2C[C@H]3OB([C@H](CCCCN)NC(=O)Cn4nc(CO)nc4Cc4ccccc4)O[C@@]3(C)[C@H]1C2 = 7.7 µM
• CC1(C)[C@@H]2C[C@H]3OB([C@H](CCCCN)NC(=O)Cn4nc(Cc5ccccc5)nc4Cc4ccccc4)O[C@@]3(C)[C@H]1C2 = 3.94 µM

Alright, here's another compound for you.
Ki measured on "CC1(C)[C@@H]2C[C@H]3OB([C@H](CCCCN)NC(=O)Cn4nc(CC(=O)O)nc4Cc4ccccc4)O[C@@]3(C)[C@H]1C2" = > 14 µM
